- Assayed System: Endothelin-1 receptor (Sus scrofa, UniProt Q29010)
- Sequence (Q29010 whole entry): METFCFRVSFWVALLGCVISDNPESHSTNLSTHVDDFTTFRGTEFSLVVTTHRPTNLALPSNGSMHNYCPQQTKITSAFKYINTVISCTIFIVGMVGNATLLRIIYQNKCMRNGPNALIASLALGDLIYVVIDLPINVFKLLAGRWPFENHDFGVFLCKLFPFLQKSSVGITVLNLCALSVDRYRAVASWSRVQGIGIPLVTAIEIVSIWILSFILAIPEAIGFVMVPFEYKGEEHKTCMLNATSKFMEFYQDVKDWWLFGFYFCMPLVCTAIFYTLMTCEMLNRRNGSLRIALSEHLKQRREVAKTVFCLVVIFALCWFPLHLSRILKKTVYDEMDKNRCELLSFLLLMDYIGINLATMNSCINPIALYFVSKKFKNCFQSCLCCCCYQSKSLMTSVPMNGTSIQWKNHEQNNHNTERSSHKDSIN
- Measurement Description: Binding affinity determined against ETA receptor in porcine aortic smooth muscle membrane
Experimental Endpoint: IC50 max (nM)
Numbers only here, please. The scale is nM.

Field: example entries. Status: answers known.
Molecule	Measurement Units	Recorded Measurement
CC(C)C[C@H](NC(=O)CC1CCCC1)C(=O)NC(Cc1c[nH]c2ccccc12)C(=O)NCCC(=O)O (single isomer, unassigned)	nM	620
CC(C)C[C@H](NC(=O)N1CCCCCC1)C(=O)NC(Cc1c[nH]c2ccccc12)C(=O)NCCC(=O)O (single isomer, unassigned)	nM	61
CC(C)C[C@H](NC(=O)N1C(C)CCCC1C)C(=O)NC(Cc1c[nH]c2ccccc12)C(=O)NCCC(=O)O (single isomer, unassigned)	nM	51
CC(C)C[C@H](NC(=O)N1CCCCCCCCC1)C(=O)NC(Cc1c[nH]c2ccccc12)C(=O)NCCC(=O)O (single isomer, unassigned)	nM	55
CC(C)C[C@H](NC(=O)NCC(C)(C)C)C(=O)NC(Cc1c[nH]c2ccccc12)C(=O)NCCC(=O)O (single isomer, unassigned)	nM	560
CC(C)C[C@H](NC(=O)NC12CC3CC(CC(C3)C1)C2)C(=O)NC(Cc1c[nH]c2ccccc12)C(=O)NCCC(=O)O (single isomer, unassigned)	nM	330

Q: Need IC50 max of CC(C)C[C@H](NC(=O)NC(C)(C)C)C(=O)NC(Cc1c[nH]c2ccccc12)C(=O)NCCC(=O)O (single isomer, unassigned) , thanks.
Result: 150

Q: // returns reported IC50 max for input CC(C)C[C@H](NC(=O)N1CCCC1)C(=O)NC(Cc1c[nH]c2ccccc12)C(=O)NCCC(=O)O (single isomer, unassigned)
Result: 310

Q: Which IC50 max is listed for CC(C)C[C@H](NC(=O)N(C(C)C)C(C)C)C(=O)NC(Cc1c[nH]c2ccccc12)C(=O)NCCC(=O)O (single isomer, unassigned) ?
Result: 57

Q: # IC50 max lookup, item CC(C)C[C@H](NC(=O)N(CCO)C(C)(C)C)C(=O)NC(Cc1c[nH]c2ccccc12)C(=O)NCCC(=O)O (single isomer, unassigned)
Result: 53
